Study target: 72 kDa type IV collagenase (Homo sapiens, UniProt P08253)
Sequence (P08253 whole entry): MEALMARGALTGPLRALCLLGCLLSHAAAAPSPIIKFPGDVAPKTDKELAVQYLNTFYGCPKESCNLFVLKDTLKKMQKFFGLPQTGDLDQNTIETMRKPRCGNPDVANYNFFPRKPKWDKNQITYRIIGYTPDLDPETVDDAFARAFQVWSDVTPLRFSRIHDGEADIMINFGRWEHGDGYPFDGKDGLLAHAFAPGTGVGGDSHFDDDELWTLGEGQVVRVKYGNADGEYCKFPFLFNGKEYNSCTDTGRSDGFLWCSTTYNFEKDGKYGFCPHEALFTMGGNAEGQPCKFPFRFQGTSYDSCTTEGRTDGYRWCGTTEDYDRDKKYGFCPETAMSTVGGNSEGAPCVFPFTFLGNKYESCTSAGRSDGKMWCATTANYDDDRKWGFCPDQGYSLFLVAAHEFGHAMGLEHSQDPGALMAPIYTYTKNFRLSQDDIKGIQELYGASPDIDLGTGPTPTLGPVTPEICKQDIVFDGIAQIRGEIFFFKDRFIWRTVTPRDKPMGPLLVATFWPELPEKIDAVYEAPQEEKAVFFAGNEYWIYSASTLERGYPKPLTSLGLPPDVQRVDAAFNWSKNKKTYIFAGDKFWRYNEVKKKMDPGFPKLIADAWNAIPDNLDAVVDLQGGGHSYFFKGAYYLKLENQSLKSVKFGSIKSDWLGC
Test method notes: Inhibition of MMP2
Metric name: IC50 (nM)

Would you please look over these solved cases?
[[record]]
compound = "O=C(NO)[C@@H]1CC2(CN1S(=O)(=O)c1ccccc1)OCCCCO2"
readout_value = 12

[[record]]
compound = "COc1ccc(/C=C/C(=O)N2C[C@@H](NC(=O)c3cccnc3)C[C@H]2C(=O)NO)cc1OC"
readout_value = 9

[[record]]
compound = "COC(=O)[C@@H]1CC2(CN1S(=O)(=O)c1ccc(C)cc1)OCCCCO2"
readout_value = 300

[[record]]
compound = "Cc1ccc(S(=O)(=O)N2CC3(C[C@H]2C(=O)NO)OCCCO3)cc1"
readout_value = 6

[[record]]
compound = "Cc1ccc(S(=O)(=O)N2CC3(C[C@H]2C(=O)NO)OCCCCO3)cc1"
readout_value = 8

[[record]]
compound = "COC(=O)[C@@H]1CC(=O)CN1S(C)(=O)=O"
readout_value = 9500


I: COC(=O)[C@@H]1CC2(CN1S(=O)(=O)c1ccc(C)cc1)OCCCO2
II: COC(=O)[C@@H]1C[C@@H](O)CN1S(C)(=O)=O (relative stereo)
[in] // which entry has the larger IC50 value, I or II ? Please reply using the label of the selected record.
[out] II
(II: 7100 nM, I: 200 nM)

----------
pIC50: −log10 of the molar value.
Let's go through some recorded pIC50 values for Aminopeptidase N (Homo sapiens) together.
Metric name: pIC50

Record excerpt, results attached:
[[record]]
molecule = "COC(=O)[C@@H]1CC(=O)CN1S(C)(=O)=O"
study_target = "Aminopeptidase N (Homo sapiens)"
readout_value = 4.03

[[record]]
molecule = "COC(=O)[C@@H]1CC2(CN1S(=O)(=O)c1ccc(C)cc1)OCCO2"
study_target = "Aminopeptidase N (Homo sapiens)"
readout_value = 3.81

[[record]]
molecule = "COC(=O)[C@@H]1CC2(CN1S(=O)(=O)c1ccccc1)OCCCO2"
study_target = "Aminopeptidase N (Homo sapiens)"
readout_value = 3.77


P: Cc1ccc(S(=O)(=O)N2CC3(C[C@H]2C(=O)NO)OCCCCO3)cc1
Q: COC(=O)[C@@H]1C[C@@H](O)CN1S(=O)(=O)c1ccc(C)cc1 (relative stereo)
R: COC(=O)[C@@H]1CC2(CN1S(=O)(=O)c1ccc(C)cc1)OCCCO2
[in] Order the entries by their reported pIC50, beginning at the minimum. Ranked list of labels, please, in the requested order.
[out] R, P, Q
